Taken from patent US20250340658A1.

Please go through the items and note down their Bmax.
target entity: T1, full length human GLP-1R with N-terminal FLAG tag and C-terminal GFP tag, on CHO cells (human, UniProt P43220 24-463)
T1 construct: whole, on cells; the cell line itself is tied to UniProt P43220; also called FLAG-GLP-1R-GFP; CHO-GLP-1R
test: flow cytometry titration, CHO GLP1R cells

Observe how each entry below is paired with its result.
binder: GLP1R-221-033 (antibody, V domains shown, IgG) VH: QVQLVESGGGVVQPGRSLRLSCAASGFSFSNYAMHWVRQAPGKGLEWVAVISHDRSNKYYADSVKGRFTISRDNSKNTLYLQMNSLRAEDTAVYYCAKHMSMQEGAVTGEGQAAKDFIAWLVKGRVRADLVGDAFDVWGQGTLVTVSS VL: QSVLTQPPSVSAAPGQKVTISCSGSSSNIGNEYVSWYQQLPGTAPKLLIYDNNKRVSGIPDRFSGSKSGTSATLGITGLQTGDEADYYCATWDTSLNVGVFGGGTKLTVL
observed property: Bmax
measured result: 167000
//
binder: GLP1R-221-009 (antibody, V domains shown, IgG) VH: QVQLVESGGGVVQPGRSLRLSCAASGFIFSNYGMHWVRQAPGKGLEWVAVISDEGSNKYYADSVKGRFTISRDNSKNTLYLQMNSLRAEDTAVYYCAKHMSMQEGAVTGAGQAAKEFIAWLVKGRVRADLVGDAFDVWGQGTLVTVSS VL: QSVLTQPPSVSAAPGQKVTISCSGSSSNIGNQYVSWYQQLPGTAPKLLIYDDHKRPSGIPDRFSGSKSGTSATLGITGLQTGDEADYYCGTWDTSLSVGEFGGGTKLTVL
observed property: Bmax
measured result: 215000

Exercise: Bmax lookup needed for GLP1R-221-017 (antibody, V domains shown, IgG) VH: QVQLVESGGGVVQPGRSLRLSCAASGFTFSDYGVHWVRQAPGKGLEWVAFISYDESNKYYADSVKGRFTISRDNSKNTLYLQMNSLRAEDTAVYYCAKHMSMQEGAVTGEYQAAKEFIAWLVKGRVRADLVGDAFDVWGQGTLVTVSS VL: QSVLTQPPSVSAAPGQKVTISCSGSSSNIGNTYVSWYQQLPGTAPKLLIYDDYKRPSGIPDRFSGSKSGTSATLGITGLQTGDEADYYCATWDATLNTGVFGGGTKLTVL , thanks.
Key: 250000
